- Tested on: wild oat
- measurementDescription: Test B pre/postemergence wild oat
- Format: in vivo, Avena fatua
- conditionLabel: Preemergence, Rate 125 g/ha
Recorded Wild oats plant response rating (0 to 10 scale) for the following molecules
Note: the reply should be a number with no unit written.

Which Wild oats plant response rating (0 to 10 scale) value belongs to CCC(CC)n1c(=O)on(C(=O)N(c2ccc(F)cc2F)C(C)C)c1=O ?
1

Quick one: CC(C)N(C(=O)n1oc(=O)n(C2CCCCCC2)c1=O)c1ccccc1
0

Queued: Cc1ccccc1-n1c(=O)on(C(=O)N(c2ccncc2)C(C)C)c1=O
0

Then this molecule: CC(C)N(C(=O)n1oc(=O)n(-c2ccc3ccccc3c2)c1=O)c1ccccc1
0

====

- System: duck salad
- measurementDescription: Test B flood test duck salad
- Format: in vivo, Heteranthera limosa
- conditionLabel: Rate 250 g/ha; Pre-emergence; flood-test species; scale 0 to 10, 0 is no effect, 10 is complete control
endpointLabel: Ducksalad plant response rating
Respond numerically, and do not add a unit to the figure.

>  <compound>
Cc1ccccc1-n1c(=O)on(C(=O)N(c2ccncc2)C(C)C)c1=O

>  <Ducksalad plant response rating>
0

$$$$
>  <compound>
CC(C)Cn1c(=O)on(C(=O)N(c2ccc(F)cc2F)C(C)C)c1=O

>  <Ducksalad plant response rating>
3

$$$$
>  <compound>
CC(C)N(C(=O)n1oc(=O)n([C@@H]2C[C@H]2C)c1=O)c1ccc(F)cc1 (relative stereo)

>  <Ducksalad plant response rating>
0

$$$$

Request body: readout Ducksalad plant response rating, system duck salad, query CC(C)N(C(=O)n1oc(=O)n(C(C)CCl)c1=O)c1ccccc1 (stereo not shown) . Return the value.
2

Consider next the compound CCC(C)N(C(=O)n1oc(=O)n(-c2ccccc2C)c1=O)c1ccc(F)cc1 (stereo not shown) in the same way.
0

Okay, and COCCOCn1c(=O)on(C(=O)N(c2ccc(F)cc2)C(C)C)c1=O [Compound 258] ?
0

====

Wild oats plant response rating overview
- System: wild oat
- measurementDescription: Test B pre/postemergence wild oat
- Format: in vivo, Avena fatua
- conditionLabel: Rate 62 g/ha, Postemergence; scale of 0 to 10 where 0 is no effect and 10 is complete control
Give only the figure.

Example entries begin here.
>  <compound>
CC(C)N(C(=O)n1oc(=O)n(C2CCC2)c1=O)c1ccc(F)cc1

>  <Wild oats plant response rating>
0

$$$$
>  <compound>
COCCOCn1c(=O)on(C(=O)N(c2ccc(F)cc2)C(C)C)c1=O

>  <Wild oats plant response rating>
0

$$$$
>  <compound>
CC(C)N(C(=O)n1oc(=O)n(C2CCCCCC2)c1=O)c1ccccc1

>  <Wild oats plant response rating>
0

$$$$

// next entry
// Wild oats plant response rating lookup, key: C=C(C)Cn1c(=O)on(C(=O)N(c2ccc(F)cc2)C(C)C)c1=O
2

====

- System: purple nutsedge
- measurementDescription: Test B pre/postemergence purple nutsedge
- Type: in vivo, Cyperus rotundus
- conditionLabel: Preemergence, Rate 125 g/ha; scale of 0 to 10 where 0 is no effect and 10 is complete control
endpointLabel: Plant response rating, Nutsedge
Answer field: number only, no words.

Please review the following examples before continuing.
>  <compound>
CCn1ncc(Cn2c(=O)on(C(=O)N(c3ccc(Cl)cc3)C(C)C)c2=O)c1Cl [Compound 684]

>  <Plant response rating, Nutsedge>
0

$$$$
>  <compound>
CC(C)N(C(=O)n1oc(=O)n([C@@H]2C[C@H]2C)c1=O)c1ccc(F)cc1 (relative stereo) [Compound 392]

>  <Plant response rating, Nutsedge>
0

$$$$
>  <compound>
CC(C)N(C(=O)n1oc(=O)n(CC#N)c1=O)c1ccc(Cl)cc1 [Compound 476]

>  <Plant response rating, Nutsedge>
0

$$$$
>  <compound>
Cc1nc(C)c(C(C)n2c(=O)on(C(=O)N(c3ccc(F)cc3F)C(C)C)c2=O)s1 (stereo not drawn) [Compound 443]

>  <Plant response rating, Nutsedge>
0

$$$$
>  <compound>
CC(C)Cn1c(=O)on(C(=O)N(c2ccc(F)cc2F)C(C)C)c1=O [Compound 394]

>  <Plant response rating, Nutsedge>
0

$$$$

If you can, please state the reported Plant response rating, Nutsedge value of CC(C)N(C(=O)n1oc(=O)n(C(C)C#N)c1=O)c1ccc(Cl)cc1 (stereo not drawn) [Compound 451] .
0
